# assayed_system: Voltage-gated inwardly rectifying potassium channel KCNH2 (Homo sapiens)
# Sequence (Q12809 whole entry): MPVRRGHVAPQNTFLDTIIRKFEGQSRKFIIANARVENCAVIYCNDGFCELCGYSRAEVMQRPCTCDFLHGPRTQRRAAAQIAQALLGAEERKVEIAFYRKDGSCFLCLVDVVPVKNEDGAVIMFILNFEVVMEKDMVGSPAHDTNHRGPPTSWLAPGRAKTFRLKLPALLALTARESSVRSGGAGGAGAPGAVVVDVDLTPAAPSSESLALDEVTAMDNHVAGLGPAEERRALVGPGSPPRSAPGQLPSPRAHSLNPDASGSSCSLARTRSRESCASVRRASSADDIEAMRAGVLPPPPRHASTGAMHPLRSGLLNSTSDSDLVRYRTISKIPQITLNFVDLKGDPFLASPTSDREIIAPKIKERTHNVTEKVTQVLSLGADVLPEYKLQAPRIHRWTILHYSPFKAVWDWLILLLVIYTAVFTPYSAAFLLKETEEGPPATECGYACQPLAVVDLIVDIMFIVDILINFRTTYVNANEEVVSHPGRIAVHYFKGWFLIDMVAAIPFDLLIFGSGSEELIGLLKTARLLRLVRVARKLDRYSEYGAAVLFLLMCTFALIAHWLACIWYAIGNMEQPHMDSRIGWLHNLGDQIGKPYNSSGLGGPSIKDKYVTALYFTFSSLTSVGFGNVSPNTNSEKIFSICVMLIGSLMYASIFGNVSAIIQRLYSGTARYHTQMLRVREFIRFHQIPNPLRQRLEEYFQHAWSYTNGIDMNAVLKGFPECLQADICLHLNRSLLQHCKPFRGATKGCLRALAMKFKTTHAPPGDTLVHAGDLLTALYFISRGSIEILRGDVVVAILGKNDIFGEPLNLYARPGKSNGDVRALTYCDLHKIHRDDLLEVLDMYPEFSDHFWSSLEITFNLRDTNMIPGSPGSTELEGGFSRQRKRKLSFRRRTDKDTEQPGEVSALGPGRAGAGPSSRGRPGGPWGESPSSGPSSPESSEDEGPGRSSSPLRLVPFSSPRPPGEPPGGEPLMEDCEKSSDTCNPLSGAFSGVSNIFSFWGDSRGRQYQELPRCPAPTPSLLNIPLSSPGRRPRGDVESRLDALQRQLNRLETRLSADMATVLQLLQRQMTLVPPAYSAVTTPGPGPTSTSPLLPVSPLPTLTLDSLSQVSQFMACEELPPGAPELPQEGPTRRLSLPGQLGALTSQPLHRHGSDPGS
# assay_details: Inhibition of hERG by electrophysiology
# Type: toxicity

smiles_record: N#Cc1cc(-c2ccc(C(=O)O)c(O)c2)c2oc(F)cc2c1
IC50: > 52 µM

----------
# assay_details: Oral bioavailability in overnight-fasted Sprague-Dawley rat at 5 mg/kg measured upto 24 hrs by LC-MS/MS analysis
# Type: ADME, organism-based
# applied_conditions: in vivo
measurement_name: bioavailability

smiles_record: N#Cc1cc(-c2ccc(C(=O)O)c(O)c2)c2ccsc2c1
measurement_name: bioavailability
result: 55.8%
--
smiles_record: N#Cc1cc(-c2ccc(C(=O)O)c(O)c2)c2oc(F)cc2c1
measurement_name: bioavailability
result: 145%
--
smiles_record: N#Cc1cc(-c2ccc(C(=O)O)c(O)c2)c2oc(Cl)cc2c1
measurement_name: bioavailability
result: 93.9%
--
smiles_record: N#Cc1cc(-c2ccc(C(=O)O)c(O)c2)c2ccoc2c1
measurement_name: bioavailability
result: 99.5%
--
smiles_record: N#Cc1cc(-c2ccc(C(=O)O)c(O)c2)c2occc2c1
measurement_name: bioavailability
result: 131%

----------
# pIC50 annotations
# assayed_system: Solute carrier family 22 member 12 (Homo sapiens, UniProt Q96S37)
# Sequence (Q96S37 whole entry): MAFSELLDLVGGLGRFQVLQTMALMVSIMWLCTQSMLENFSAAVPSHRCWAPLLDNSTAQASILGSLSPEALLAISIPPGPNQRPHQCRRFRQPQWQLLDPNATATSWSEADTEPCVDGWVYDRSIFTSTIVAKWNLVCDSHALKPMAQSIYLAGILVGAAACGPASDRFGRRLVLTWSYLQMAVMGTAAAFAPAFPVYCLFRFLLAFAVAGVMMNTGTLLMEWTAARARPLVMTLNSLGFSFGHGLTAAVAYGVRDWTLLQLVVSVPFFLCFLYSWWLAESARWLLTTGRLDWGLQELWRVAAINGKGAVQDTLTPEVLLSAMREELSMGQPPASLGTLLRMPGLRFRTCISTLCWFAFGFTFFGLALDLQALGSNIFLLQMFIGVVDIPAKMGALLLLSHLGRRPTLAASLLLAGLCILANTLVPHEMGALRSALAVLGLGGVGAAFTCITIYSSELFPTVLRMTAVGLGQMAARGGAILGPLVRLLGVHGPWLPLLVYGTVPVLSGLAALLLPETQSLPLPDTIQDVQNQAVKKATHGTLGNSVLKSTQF
pIC50: −log10 of the molar value.
measurement_name: pIC50

smiles_record: N#Cc1cc(-c2ccc(C(=O)O)c(O)c2)c2ncsc2c1
measurement_name: pIC50
numeric_result: 5.44
//
smiles_record: CC(C)COc1ccc(-c2ccc(C(=O)O)c(O)c2)cc1C#N
measurement_name: pIC50
numeric_result: 5.08
//
smiles_record: N#Cc1cc(-c2ccc(C(=O)O)c(O)c2)c2oc(Cl)cc2c1
measurement_name: pIC50
numeric_result: 7.43
//
smiles_record: N#Cc1cc(-c2ccc(C(=O)O)c(O)c2)c2occ(C(F)(F)F)c2c1
measurement_name: pIC50
numeric_result: 5.78
//
smiles_record: N#Cc1cccc(-c2ccc(C(=O)O)c(O)c2)c1
measurement_name: pIC50
numeric_result: 5.66
//
smiles_record: N#Cc1cc(-c2ccc(C(=O)O)c(O)c2)c2oc(F)cc2c1
measurement_name: pIC50
numeric_result: 7.51

Reference source for all entries: ChEMBL document CHEMBL5584307
